Literature-derived pIC50 for PIK3CG (human) follows.
pIC50: −log10 of the molar value.

molecular-string	pIC50
C[C@H](Nc1ncnc2cccnc12)c1cc2cccc(-c3cnn(C)c3)c2c(C(=O)N2CCOCC2)n1	> 5.00
CN(C)CCNC(=O)Nc1ccc(Nc2nc(Nc3ccc(C(N)=O)cc3)c3cnn(C)c3n2)cc1	6.84
COc1cc(-c2cccc3cc([C@H](C)NC(=O)c4c(N)nn5cccnc45)n(C4CC4)c(=O)c23)ccn1	5.00 to 6.00
Cn1cc(/C=C2\Oc3ccc(O)cc3C2=O)c2c(-c3ccccc3)ccnc21	< 5.00
Cc1cccc2cc(Cn3nc(C#C[C@@H](C)O)c4c(N)ncnc43)n(C3CC3)c(=O)c12	> 6.00
CN1CCN(C2CN(c3cnc4ccc(-c5ccc6nc(N)[nH]c6c5)nc4c3)C2)CC1	< 5.00
Cn1cc(/C=C2\Oc3cc(O)cc(O)c3C2=O)c2c(N3CCCCC3)ccnc21	6.55
CC(=O)Nc1ncc(-c2cccc(NS(C)(=O)=O)c2)nc1C(=O)N[C@@H](C)c1cc2cccc(Cl)c2c(=O)n1C	< 5.00

---

pIC50: −log10 of the molar value.
Please find below pIC50 data on PIK3CG (human) compiled from the literature.

molecular-string	value-prefix	pIC50
NC(=O)c1ccc(Nc2nc(-c3ccc(O)cc3)nc3c2cnn3C2CCN(Cc3ccccc3)CC2)cc1	=	5.28
Cn1cc(/C=C2\Oc3cc(O)cc(O)c3C2=O)c2c(-c3ccc(OCCn4ccnc4)cc3)ccnc21	=	6.61
Cn1cc(/C=C2\Oc3cccc(O)c3C2=O)c2c(-c3ccc(N4CCNCC4)cc3)ccnc21	=	5.85
Cc1ccccc1-n1c(Cn2nc(-c3cccc(O)c3)c3c(N)ncnc32)cc2ccccc2c1=O	>	6.00
Cn1ncc2c(Nc3ccc(C(N)=O)cc3)nc(-c3ccc(-c4ccccc4)cc3)nc21	<	5.00
CC(C)(C)NCCn1ccc2c(N3CCOCC3)nc(-c3ccc(NC(=O)Nc4ccncc4)cc3)nc21	=	6.39
Cc1csc2nc(Cn3nc(-c4cc(O)cc(F)c4)c4c(N)ncnc43)n(-c3ccccc3Cl)c(=O)c12	<	5.00
CCn1ccc2c(N3CCOCC3)nc(-c3ccc(NC(=O)Nc4ccc(C(=O)N5C[C@@H](C)N[C@@H](C)C5)cc4)cc3)nc21	=	7.89
C=CC(=O)N1CCN(Cc2cc3nc(-c4ccccc4)nc(N4CCOCC4)c3s2)CC1	<	6.00
C[C@H](NC(=O)c1cnc2cccnn12)c1cc2cccc(Cl)c2c(C(=O)N2CCOCC2)n1	>	5.00
Cn1cc(/C=C2\Oc3cc(O)cc(O)c3C2=O)c2c(-c3ccc(C(N)=O)cc3)ccnc21	=	7.42
CC(=O)Nc1nc(C)c(-c2ccc(Cl)c(S(=O)(=O)N[C@@H](CO)C(=O)O)c2)s1	<	6.00
C/C=C/C(=O)CCC(=O)N1CCN(Cc2cc3nc(-c4cccc5[nH]ncc45)nc(N4CCOCC4)c3s2)CC1	<	6.00

---

Reported IC50 against PIK3CG (human) (UniProt P48736), gathered from multiple publications, appears below.

compound	IC50
NC(=O)c1ccc(Nc2nc(-c3ccccc3O)nc3c2cnn3C2CCN(Cc3ccccc3)CC2)cc1	4000 nM
CNC(=O)Nc1ccc2c(c1)C(=O)/C(=C/c1cn(C)c3nccc(-c4ccc(C(=O)N5CCOCC5)cc4)c13)O2	578 nM
Cn1cc(-c2cccc3cc(CNc4nc(N)nc(N)c4C#N)c(N4CCOCC4)nc23)c2cc[nH]c2c1=O	16.7 nM
C[C@H](NC(=O)c1c(N)nn2cccnc12)c1cc2ccsc2c(=O)n1-c1ccccc1	1000 to 10000 nM
C=C(C)c1nn(Cc2cc3cccc(C)c3c(=O)n2-c2ccccc2)c2ncnc(N)c12	< 1000 nM
OCc1cccc(-c2nc(N3CCOCC3)c3cc[nH]c3n2)c1	752 nM
C[C@H](Nc1ncnc2[nH]cnc12)c1cc2c(F)ccc(Cl)c2c(CCN2CCOCC2)n1	< 10000 nM
C[C@H](Nc1ncnc2cccnc12)c1cc2cccc(-c3cnn(C)c3)c2c(CCN2CCOCC2)n1	< 10000 nM
Cc1cccc2cc(Cn3nc(I)c4c(N)ncnc43)n(-c3ccccc3F)c(=O)c12	< 1000 nM
Cn1cc(/C=C2\Oc3cccc(O)c3C2=O)c2c(-c3cccc(C(F)(F)F)c3)ccnc21	676 nM
Cc1nsc2cc(C(C)Nc3ncnc4scnc34)n(-c3ccccc3)c(=O)c12 (stereo not drawn)	1000 to 10000 nM
CN(Cc1cccnc1)C(=O)C1CCN(c2ccnc3c2c(/C=C2\Oc4ccc(NC(=O)Nc5cccnc5)cc4C2=O)cn3C)CC1	1610 nM
CNC(=O)Nc1cccc(-c2nc(Nc3ccc(C(N)=O)cc3)c3cnn(C)c3n2)c1	3600 nM
C[C@H](NC(=O)c1c(N)nn2cccnc12)c1cc2cccc(-c3ccn[nH]3)c2c(=O)n1-c1ccccc1	100 to 1000 nM
Cc1cccc2cc(C(C)Nc3ncnc4[nH]cnc34)n(CCN3CCOCC3)c(=O)c12 (stereo not drawn)	< 10000 nM
CC(C)(C)C#CC(=O)CC[C@H](NC(=O)OC(C)(C)C)C(=O)N1CCN(Cc2cc3nc(-c4cccc5[nH]ncc45)nc(N4CCOCC4)c3s2)CC1	> 1000 nM
Cc1cccc2cc(C(C)Nc3ncnc4[nH]cnc34)n(-c3cccc(F)c3)c(=O)c12 (stereo not drawn)	< 1000 nM
C[C@H](Nc1ncnc2scnc12)c1cc2cccc(Cl)c2c(C(=O)N2CCCCC2)n1	< 10000 nM
Nc1nn2cccnc2c1C(=O)N1CCC[C@H]1c1cc2cccc(Cl)c2c(=O)n1-c1ccccc1	1000 to 10000 nM
CN(C)CCOc1ccc(NC(=O)Nc2ccc3c(c2)C(=O)/C(=C/c2cn(C)c4nccc(N5CC6CCC(C5)O6)c24)O3)cc1	> 10000 nM
CNC(=O)C(C)Cn1cnc2ccc(-c3cnc(C)c(NS(=O)(=O)c4sc(C)nc4C)c3)cc2c1=O (single isomer, unassigned)	19.6 nM
CC(C)=CC(=O)CCCC(=O)N1CC=C(c2cc3nc(-c4cnc(N)nc4)nc(C4=CCOCC4)c3s2)CC1	100 to 1000 nM
COc1ccccc1-n1c(Cn2nc(C#C[C@@H](C)O)c3c(N)ncnc32)cc2cccc(C)c2c1=O	< 1000 nM
COc1cccc(-c2nc(Oc3ccc4[nH]ccc4c3)c3cnn(C)c3n2)c1	1140 nM
Cc1cccc2cc([C@H](C)Nc3ncnc4[nH]cnc34)n(C3CC3)c(=O)c12	< 100 nM
Cn1cc(/C=C2\Oc3cccc(O)c3C2=O)c2c(N3CCC(C(=O)N4CCOCC4)CC3)ccnc21	50 nM
C=CC(=O)NCc1ccc(C(=O)N2CCN(Cc3cc4nc(-c5cccc6[nH]ncc56)nc(N5CCOCC5)c4s3)CC2)cc1	> 1000 nM
Nc1nc2cc(-c3ccc4ncc(N5CCC(O)CC5)nc4n3)ccc2o1	< 100 nM
CC1CN(C(=O)c2nc([C@H](C)Nc3ncnc4scnc34)cc3cccc(Cl)c23)CCO1 (stereo partly drawn)	< 1000 nM
COCCN(CCOC)C(=O)C1CCN(c2ccnc3c2c(/C=C2\Oc4ccc(NC(=O)Nc5cccnc5)cc4C2=O)cn3C)CC1	5580 nM

---

Reported pIC50 against PIK3CG (human) (UniProt P48736), gathered from multiple publications, appears below.
pIC50: −log10 of the molar value.
readout-kind: pIC50

molecular-string	result
C/C=C/C(=O)CCC(=O)NCC(=O)N1CCN(Cc2cc3nc(-c4cccc(O)c4)nc(N4CCOCC4)c3s2)CC1	< 6.00
O=C(c1cnc2ccc(-c3cnc4cc[nH]c4c3)cn12)N1CCOCC1	< 5.00
CN(C)C(=O)C1CCN(c2ccnc3c2c(/C=C2\Oc4ccc(NC(=O)Nc5nc6ccccc6n5C)cc4C2=O)cn3C)CC1	< 5.00
Cc1ccccc1-n1c(Cn2nc(I)c3c(N)ncnc32)cc2cccc(C)c2c1=O	> 7.00

---

// read-out pIC50, gathered for PIK3CG (human) (UniProt P48736) from published studies
pIC50: −log10 of the molar value.
Label 1.0 when pIC50 is at or above 7; anything below gets 0.0.

compound	class-assignment
CC(C)N1CCN(C2CN(c3cnc4ccc(-c5ccc6nc(N)[nH]c6c5)nc4c3)C2)CC1	0.0
CC(C)n1ccc2c(N3CCOCC3)nc(-c3ccc(NC(=O)Nc4ccc(C(=O)NCCN(C)C)cc4)cc3)nc21	1.0
Cn1cc(/C=C2\Oc3ccc(NC(=O)Nc4ccc(F)nc4)cc3C2=O)c2c(N3CC4CCC(C3)O4)ccnc21	0.0
CC(C)[C@H](Nc1ncnc2cccc(F)c12)c1cc2cccc(-c3cnc(N)nc3)c2c(=O)n1-c1ccccc1	0.0
Cc1ccccc1-n1c(C(C)Nc2ncnc3[nH]cnc23)cc2cccc(C)c2c1=O (stereo not drawn)	1.0
CNC(=O)Nc1ccc(-c2nc(N3CCOC[C@H]3C)nc3c2cnn3CC(C)(C)O)cc1	0.0
COC[C@H](Nc1ccc2c(c1)OCCn1cc(N3C(=O)OC[C@H]3CC#N)nc1-2)C(N)=O	0.0
Cn1cc(/C=C2\Oc3ccc(NC(=O)Nc4cccnc4)cc3C2=O)c2c(N3CCC(C(=O)NCc4ccncc4)CC3)ccnc21	0.0
CC[C@H](Nc1ncnc2[nH]cnc12)c1nc2cccc(F)c2c(=O)n1-c1cccc(CC(F)(F)F)c1	0.0
Cc1ccccc1-n1c(Cn2nc(/C=C/C(N)=O)c3c(N)ncnc32)cc2cccc(C)c2c1=O	1.0
